Documented viability at 10 µM across a set of compounds
Tested on: MUTU-1 Burkitt lymphoma cell line (EBV+)
Assay: cells
Settings: Mutu-1, 24 h, read-out: MUTU-1 Cell Viability % 10 μM, 10 μM, 24 h
Value Kind: viability at 10 µM (%)

>>> readout_number("N/N=C/C12c3ccccc3C(c3ccccc31)C1C(=O)N(c3ccccc3)C(=O)C12 (stereo not shown) [Compound 23h]")
78
>>> readout_number("O=C1C2C3c4ccccc4C(/C=C/[N+](=O)[O-])(c4ccccc43)C2C(=O)N1CCCCCCN1C(=O)C2C3c4ccccc4C(/C=C/[N+](=O)[O-])(c4ccccc43)C2C1=O (stereo not shown)")
2.1
>>> readout_number("O=C1C2C3c4ccccc4C(/C=C/[N+](=O)[O-])(c4ccccc43)C2C(=O)N1c1ccccc1O (stereo not shown) [Compound 16l]")
0.61
>>> readout_number("N#C/C=C/C12c3ccccc3C(c3ccccc31)C1C(=O)OC(=O)C12 (stereo not shown) [Compound 23a]")
82.6
